Test system: NCI/ADR-RES ovarian
Test: NCI tumour cell line growth inhibition, 48 h
readout-type: TGI

Example results:
> print(dat)
                                   compound               target  readout.type  endpoint.value
1  O=c1[nH]c(=O)n(COCc2ccccc2)c2ccc([N+](=O)[O-])cc12  NCI/ADR-RES ovarian           TGI        > 100 µM
2          Cc1cc(=O)n2nc(CSc3nnc(N)s3)sc2n1  NCI/ADR-RES ovarian           TGI        > 100 µM
3  O=C(Nc1ncc(Cc2ccccc2)s1)c1ccc2c(c1)OCCCO2  NCI/ADR-RES ovarian           TGI        > 100 µM

Ask: What does the record list as TGI for Cc1ccc(NC(=S)Nc2c(C)n(C)n(-c3ccccc3)c2=O)cc1 ?
Reply: > 100 µM

###

Test system: SK-MEL-2 melanoma
Test: NCI tumour cell line growth inhibition, 48 h
readout-type: TGI

Example results:
> print(dat)
                                   molecule  endpoint.value
1        O=c1[nH]c(-c2ccccc2)nc2ccc(Cl)cc12        > 100 µM
2          O=c1[nH]c2ccccc2nc1/C=C(\O)C(F)F        > 100 µM
3            Cc1cn(CC2=NCCCN2)c(=O)[nH]c1=O        > 100 µM
4  CCOC(=O)C(NC(=O)CC(C)C)(Nc1ccc(C(F)(F)F)cc1)C(F)(F)F (stereo unspecified)        > 100 µM
5  O=c1[nH]c(=O)n(COCc2ccccc2)c2ccc(Br)cc12        > 100 µM

Ask: What does the record list as TGI for COc1cc(/C=C2\N=C(c3ccccc3)N(/N=C3\C(=O)Nc4ccccc43)C2=O)cc(OC)c1OC ?
Reply: > 100 µM

Ask: What does the record list as TGI for OCCCCC#Cc1ccccc1C#Cc1ccccc1F ?
Reply: 52.5 µM

Ask: What does the record list as TGI for O=C(CN1CCCCC1)c1ccc2c(c1)Sc1ccccc1O2 ?
Reply: 32.8 µM

Ask: What does the record list as TGI for O=C(NCCCCNCCCNC(=O)c1ccccc1)c1ccccc1 ?
Reply: > 100 µM

Ask: What does the record list as TGI for O=Nc1c(-c2cccc([N+](=O)[O-])c2)nc2cnccn12 ?
Reply: 68.1 µM

Ask: What does the record list as TGI for Cc1cc(=O)c2cc(N=Cc3ccc([N+](=O)[O-])o3)ccc2o1 ?
Reply: > 100 µM

###

System: A549 NSCLC
Experiment: NCI tumour cell line growth inhibition, 48 h
In this section we review reported TGI values for a set of molecules.

Example results:
> print(dat)
                                   molecule  readout.type  endpoint.value
1   CN(C)c1ccc(C(=O)c2ccc(N(C)C)c(N)c2)cc1N           TGI        > 100 µM
2  CN1C/C(=C\c2ccc(Cl)cc2)C(=O)/C(=C/c2ccc(Cl)cc2)C1           TGI        > 100 µM
3  O=C(c1ccccc1)c1c(C(F)(F)F)n([O-])c2cc(Cl)c(Cl)cc2[n+]1=O           TGI         4.19 µM
4          Cc1cc(=O)n2nc(CSc3nnc(N)s3)sc2n1           TGI        > 100 µM
5                 Nc1ccc(N=Nc2ccccc2)c(N)n1           TGI        > 100 µM

Ask: What does the record list as TGI for [N-]=[N+]=NC1CC(n2cc(COCC(F)(F)F)c(=O)[nH]c2=O)OC1CO (stereo not drawn) ?
Reply: > 100 µM

Ask: What does the record list as TGI for O=C(CN1CCCCC1)c1ccc2c(c1)Sc1ccccc1O2 ?
Reply: 29.1 µM

Ask: What does the record list as TGI for NC1C2C(CC(=O)O)OCC=C3CN4CCC1(C(=O)C(=O)O)C4CC32 (stereo not drawn) ?
Reply: > 100 µM

Values were extracted from PubChem BioAssay (NCI).
